Tested on: UO-31 renal
Assay overview: NCI-60 one-dose screen, 48 h (100 = growth as untreated, 0 = no growth, -100 = all killed)
Condition parameters: 10 µM
About 83,000 compounds went through this panel and 20% of them were active in at least one assay; those are over-represented in the sample as a whole.
Reported endpoint: growth (%)
I only need the number, in %, no unit after it.

Query block: Form field: reported growth of Cc1ccc(-c2cc(C(=O)N=Nc3c(O)[nH]c4ccc(Br)cc34)c3ccccc3n2)cc1
Result block: 52.2

New cases:
Query block: Form field: reported growth of CN1C(=O)/C(=C/c2ccc3ncsc3c2)NC1=NC12CC3CC(CC(O)(C3)C1)C2
Result block: -0.057

Query block: Repeat for the following molecule: OCCNc1oc(-c2ccccc2)nc1[P+](c1ccccc1)(c1ccccc1)c1ccccc1
Result block: 71.8

Query block: Repeat for the following molecule: CN1CCN(c2ccc(Nc3nc(NCCCNC(=O)c4ccc(Cl)cc4)c4sccc4n3)cc2)CC1
Result block: 67.3

Query block: Repeat for the following molecule: O=C1NC(=NC23CC4CC(CC(C4)C2)C3)N/C1=C\c1ccc2ncccc2n1
Result block: -15.8

---

Test system: SK-MEL-28 melanoma
Assay overview: NCI-60 one-dose screen, 48 h (100 = growth as untreated, 0 = no growth, -100 = all killed)
Condition parameters: 10 µM
Compounds without any hit were thinned out: in the full panel of roughly 83,000, 20% have a hit. The source made the active and inactive calls. Rule for the calls: active = growth percent below 10; inactive = the rest.
Reported endpoint: growth

Query block: Form field: reported growth of CN(C)c1ccc(/C=C/c2nc3ccccc3c(=O)n2CC(=O)Nc2ccc(Cl)cc2)cc1
Result block: 66% (inactive)

Query block: Repeat for the following compound: COc1ccc(-c2cc(C(=O)N=Nc3c(O)[nH]c4ccccc34)c3ccccc3n2)cc1
Result block: -41% (active)

Query block: Repeat for the following compound: COc1cc2c(cc1OC)CN(CCCCOc1cc(O)c3c(=O)cc(-c4ccccc4)oc3c1)CC2
Result block: -8.78% (active)

Query block: Repeat for the following compound: COc1cc2c3c(n(CCCn4ccnc4)c(=O)c2cc1OC)-c1nc2c(cc1C3=O)OCO2
Result block: 80.9% (inactive)

Query block: Repeat for the following compound: O=C(c1ccc(-n2c(=O)[nH]c3ccccc3c2=O)cc1)N1CCOCC1
Result block: 108% (inactive)

Query block: Repeat for the following compound: Nc1nc(Nc2ccccc2)nn1Cc1c(Cl)cccc1Cl
Result block: 55.5% (inactive)

Query block: Repeat for the following compound: COc1cccc(-c2ccc(/C=N/NC(=O)c3[nH]c4ccc(Br)cc4c3-c3ccccc3)o2)c1
Result block: 42.5% (inactive)

Query block: Repeat for the following compound: CNC(=O)c1cc(-c2ccc(NC(=O)Nc3ccc(C)cc3)cc2)nc2cccnc12
Result block: 118% (inactive)

Query block: Repeat for the following compound: O=C(CSc1nnc(-c2c[nH]c3ccccc23)n1-c1ccccc1)Nc1ccc(C(=O)/C=C/c2ccccc2Cl)cc1
Result block: 96.3% (inactive)

Query block: Repeat for the following compound: COc1ccc(CN2[C@@H](C(=O)NCc3ccc(C(=O)NO)cc3)Cc3c([nH]c4ccccc34)[C@@H]2C2CC2)cc1
Result block: 24.8% (inactive)

Query block: Repeat for the following compound: CCCCCc1ccc(S(=O)(=O)N(C(C)=O)c2cc(-c3csc(N(C)C(C)=O)n3)ccc2N2CCN(C)CC2)cc1
Result block: -94.3% (active)

Query block: Repeat for the following compound: CN1CCCN(Cc2ccc(C(=O)Nc3cccc(Nc4ccc5cc(O)ccc5n4)c3)cc2C(F)(F)F)CC1
Result block: -67.9% (active)

Query block: Repeat for the following compound: OCCCNc1oc(-c2ccccc2)nc1[P+](c1ccccc1)(c1ccccc1)c1ccccc1
Result block: 7.68% (active)

Query block: Repeat for the following compound: O=C(CNc1nc(-c2ccccc2)cs1)Nc1ccc([N+](=O)[O-])cc1
Result block: -6.86% (active)

Query block: Repeat for the following compound: N#Cc1c(-c2ccc(F)cc2)nc(SCc2ccc([N+](=O)[O-])cc2)nc1N1CCOCC1
Result block: 82.1% (inactive)

Query block: Repeat for the following compound: N#Cc1ccc(-c2nn(-c3ccc(C(=O)O)cc3)cc2CNc2cc(Cl)cc(C(F)(F)F)c2)cc1
Result block: 12.2% (inactive)

Query block: Repeat for the following compound: Cc1ccc(CNC(=O)Cc2ccc3c(c2)CN(C2CCC(=O)NC2=O)C3=O)cc1 (stereo not drawn)
Result block: 22% (inactive)

Query block: Repeat for the following compound: CC1(c2ccccc2)NC(=O)N(CC(=O)Nc2ccc(C(=O)/C=C/c3ccc(Cl)cc3)cc2)C1=O (stereo not drawn)
Result block: 15.8% (inactive)

---

Tested on: HOP-62 NSCLC
Assay overview: NCI-60 one-dose screen, 48 h
Condition parameters: 10 µM
This is part of a sample that, as a whole, favours compounds with a hit. Of some 83,000 tested, about 20% had one in any assay. Calls of active or inactive are those of the source. Rule for the calls: active = growth percent below 10; inactive = the rest.
I would appreciate it if you answered using one of these outcomes: 1 (active), 0 (inactive)

Query block: Which result was noted for this molecule in the test: O=C(Nc1cccc([N+](=O)[O-])c1)Nc1cccc([N+](=O)[O-])c1
Result block: 0

Query block: Repeat for the following molecule: Nc1nc(Nc2ccccc2)nn1Cc1c(Cl)cccc1Cl
Result block: 0

Query block: Repeat for the following molecule: O=c1c2ccccc2nc(COc2ccccc2)n1/N=C/c1ccc(F)cc1
Result block: 0

Query block: Repeat for the following molecule: C/C(=C\c1ccc(O)cc1O)c1ccc2ccc(O)cc2[o+]1
Result block: 0

Query block: Repeat for the following molecule: COc1ccc(NC(=O)CSc2nnc(-c3ccc4nc(-c5ccc(Cl)cc5)[nH]c4c3)o2)cc1
Result block: 0

Now, please, on to the next molecule.
Query block: Which result was noted for this molecule in the test: Nc1nc(Nc2ccc(Cl)cc2)n(Cc2cccc(Br)c2)n1
Result block: 1

---

Test system: PC-3 prostate
Assay overview: NCI-60 one-dose screen, 48 h (100 = growth as untreated, 0 = no growth, -100 = all killed)
Condition parameters: 10 µM
Compounds without any hit were thinned out: in the full panel of roughly 83,000, 20% have a hit.
growth below 40% gives NO; growth at or above it gives YES.

Query block: Decide: growth of COc1cc(OC(F)(F)F)ccc1C(=O)Nc1sc2c(c1C#N)CCC(=O)C2 >= 40%?
Result block: NO

Query block: Repeat for the following compound: CC(C)(C)c1ccc(NCc2cn(-c3ccc(C(=O)O)cc3)nc2-c2ccc(C#N)cc2)cc1
Result block: NO

Query block: Repeat for the following compound: COc1ccc(-c2ccc(/C=N/NC(=O)c3[nH]c4ccc(Br)cc4c3-c3ccccc3)o2)cc1
Result block: YES

New cases:
Query block: Decide: growth of CCOC(=O)C(Cc1ccccc1)N1C(=O)/C(=C/N2N=C(c3ccc(OC)cc3)CC2c2ccc3ccccc3c2)SC1=S (stereo not drawn) >= 40%?
Result block: NO

Query block: Repeat for the following compound: Nc1nc(-c2ccccc2)cc(-c2cc3ccccc3nc2Cl)n1
Result block: YES

Query block: Repeat for the following compound: O=C1Nc2ccc(Cl)cc2/C1=C/c1cccc(OCc2ccccn2)c1
Result block: NO

Query block: Repeat for the following compound: Cc1ccc(-c2nc3ccc(C(=O)N=Nc4c(O)[nH]c5ccc([N+](=O)[O-])cc45)cc3[nH]2)cc1
Result block: YES

Query block: Repeat for the following compound: CN1CCN(c2ccc(Nc3nc(NCCCNC(=O)c4ccc(Cl)cc4)c4sccc4n3)cc2)CC1
Result block: YES

Query block: Repeat for the following compound: O=C(CSc1nnc(-c2c[nH]c3ccccc23)n1-c1ccccc1)Nc1ccc(C(=O)/C=C/c2cccc([N+](=O)[O-])c2)cc1
Result block: YES

Query block: Repeat for the following compound: COC[C@@H](CC(C)C)N=C1NC(=O)/C(=C/c2ccc3ncoc3c2)N1
Result block: YES

Query block: Repeat for the following compound: CCOc1ccc(/C=N/NC(=O)Cn2nc(Cc3ccc([N+](=O)[O-])cc3)c3onc(C)c3c2=O)cc1
Result block: NO

Query block: Repeat for the following compound: CN1CCN(c2ccc(Nc3nc(NCCCNC(=O)C4CCCCC4)c4sccc4n3)cc2)CC1
Result block: YES

Query block: Repeat for the following compound: O=C(Cn1cc(CSc2nnc3oc4ccccc4n23)nn1)Nc1ccc(Br)cc1
Result block: YES

Query block: Repeat for the following compound: CC1(C)CC[C@]23CC[C@]4(C)[C@H](CC[C@@H]5[C@@]6(C)CC[C@H](N)C(C)(C)[C@@H]6CC[C@]54C)[C@H]2[C@H]1OC3=O
Result block: NO

Query block: Repeat for the following compound: CNC(=O)c1cc(-c2ccc(NC(=O)Nc3ccc(C)cc3)cc2)nc2cccnc12
Result block: YES

Query block: Repeat for the following compound: C/C(=N\NC(N)=S)c1ccc(Nc2nc(SC(C)C)nc(-c3ccccc3)c2C#N)cc1
Result block: YES

Query block: Repeat for the following compound: COc1cccc(/C=N/NC(=O)c2ccc3nc(-c4ccc(Cl)cc4)[nH]c3c2)c1O
Result block: NO
